target_desc: Human complement C1s enzyme (Homo sapiens)
Construct: purified from human serum, Complement Technology, Inc
Sequence (P09871 438-688 limits assumed): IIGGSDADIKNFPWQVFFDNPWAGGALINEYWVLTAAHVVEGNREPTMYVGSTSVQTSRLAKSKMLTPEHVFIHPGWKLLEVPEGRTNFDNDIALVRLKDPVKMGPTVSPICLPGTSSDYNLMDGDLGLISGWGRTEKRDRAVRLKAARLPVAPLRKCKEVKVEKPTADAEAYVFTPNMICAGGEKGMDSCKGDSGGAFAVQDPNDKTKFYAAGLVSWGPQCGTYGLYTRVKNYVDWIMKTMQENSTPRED
Sequence (P09871 16-437 partner limits assumed): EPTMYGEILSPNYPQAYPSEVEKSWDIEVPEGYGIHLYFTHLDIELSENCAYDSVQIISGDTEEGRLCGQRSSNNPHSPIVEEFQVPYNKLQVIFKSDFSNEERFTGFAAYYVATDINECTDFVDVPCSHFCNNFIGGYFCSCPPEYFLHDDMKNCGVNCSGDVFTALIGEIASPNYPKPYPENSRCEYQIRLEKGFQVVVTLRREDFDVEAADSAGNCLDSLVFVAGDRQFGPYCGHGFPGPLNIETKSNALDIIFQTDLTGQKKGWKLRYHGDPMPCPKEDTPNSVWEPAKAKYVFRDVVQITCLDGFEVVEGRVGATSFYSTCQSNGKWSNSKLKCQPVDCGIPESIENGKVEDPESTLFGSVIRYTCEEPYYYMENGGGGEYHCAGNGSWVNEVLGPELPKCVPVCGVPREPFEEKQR
procedure_summary: Human C1s enzyme assay
condition_description: human complement C1s enzyme 1.16 nM, substrate Z-L-Lys-SBzl, A405; read-out: IC50 (Stars)
pIC50: −log10 of the molar value.
Reported pIC50 values are given for each entry in this list.
property_measured: pIC50

compound_string: O=C(Cn1c(-c2ccccc2)cnc(NC(=O)c2ccc(Oc3ccccc3)cc2)c1=O)NCc1cc2cnccc2[nH]1
target_desc: Human complement C1s enzyme (Homo sapiens)
property_measured: pIC50
result_value: > 7.00
//
compound_string: O=C(Cn1c(-c2cn[nH]c2)ncc(NCc2ccc3oc4ccccc4c3c2)c1=O)NCc1cc2cnccc2[nH]1
target_desc: Human complement C1s enzyme (Homo sapiens)
property_measured: pIC50
result_value: > 7.00
//
compound_string: C[C@@H](Nc1cnc(N2CCCCC2)n(CC(=O)NCc2cc3cnccc3[nH]2)c1=O)c1ccc(Oc2ccccc2)cc1
target_desc: Human complement C1s enzyme (Homo sapiens)
property_measured: pIC50
result_value: 6.00 to 7.00
//
compound_string: C[C@@H](Nc1cnc(N2CCn3c(nnc3C(F)(F)F)C2)n(CC(=O)NCc2cc3cnccc3[nH]2)c1=O)c1ccc2oc3ccccc3c2c1
target_desc: Human complement C1s enzyme (Homo sapiens)
property_measured: pIC50
result_value: 6.00 to 7.00
//
compound_string: O=C(Cn1cncc(NC(=O)c2csc(-c3ccccc3)n2)c1=O)NCc1cc2cnccc2[nH]1
target_desc: Human complement C1s enzyme (Homo sapiens)
property_measured: pIC50
result_value: 6.00 to 7.00
//
compound_string: COCC(=O)N1CCN(c2ncc(N[C@H](C)c3ccc4oc5ccccc5c4c3)c(=O)n2CC(=O)NCc2cc3cnccc3[nH]2)CC1
target_desc: Human complement C1s enzyme (Homo sapiens)
property_measured: pIC50
result_value: > 7.00
//
compound_string: O=C(Cn1c(-c2ccccc2)ncc(NCCCc2ccc3sc4ccccc4c3c2)c1=O)NCc1cc2cnccc2[nH]1
target_desc: Human complement C1s enzyme (Homo sapiens)
property_measured: pIC50
result_value: > 7.00
